The measured values listed here are drawn from patent US20080026996A1.

- TESTED_ON: T1, human VPAC2 receptor (human, UniProt P41587 24-438)
- T1 sequence (looked up): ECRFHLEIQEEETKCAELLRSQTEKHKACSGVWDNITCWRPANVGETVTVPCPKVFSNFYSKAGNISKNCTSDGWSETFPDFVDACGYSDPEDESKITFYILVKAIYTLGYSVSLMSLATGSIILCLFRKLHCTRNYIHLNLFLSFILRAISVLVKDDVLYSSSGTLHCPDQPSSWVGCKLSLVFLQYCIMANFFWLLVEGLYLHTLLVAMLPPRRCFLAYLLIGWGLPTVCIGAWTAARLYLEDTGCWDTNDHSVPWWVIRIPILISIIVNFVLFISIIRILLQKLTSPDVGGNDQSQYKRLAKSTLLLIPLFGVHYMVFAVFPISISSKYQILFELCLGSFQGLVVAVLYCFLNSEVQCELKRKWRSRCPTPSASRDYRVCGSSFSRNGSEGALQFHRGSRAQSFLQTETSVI
- ASSAY_COMMENT: cell-based or functional assay
Where no end group is shown, it is not given here. [ ]: non-standard residue; d: D form. The star is where a group is joined. Hexanoyl = CCCCCC(=O)*; Aib = CC(C)(N)C(=O)O
For each record, check the reported EC50 cAMP, Alpha Screen: if it is below 0.2 nM write TRUE, else write FALSE.

[[record]]
binder = "Hexanoyl-HSDAVFTDNYTRLR[Aib]QVAAK[Aib]YLQSIKQGGPSSGAPPPS (ends and bridges not checked) [P298]"
category_label = "FALSE"

[[record]]
binder = "Hexanoyl-HSDAVFTDNYTRLRKQVAAKKYLQSIKNKRFGGPSSGAPPPS [P203]"
category_label = "TRUE"

[[record]]
binder = "Hexanoyl-HSDAVFTDNYTRLRKQVAAKKYFQSIKNKRYGGPSSGAPPPS [P231]"
category_label = "FALSE"

[[record]]
binder = "Hexanoyl-HSDAVFTDNYTRLRKQVAAKLYLQSIKNKRYGGPSSGAPPPS [P185]"
category_label = "TRUE"

[[record]]
binder = "HSDAVFTDNYTREKEKVAAKKYLQSIKNKRYGGPSSGAPPPS [P87]"
category_label = "FALSE"

[[record]]
binder = "Hexanoyl-HSDALFTDNYTRLRKQVAAKKYLQSIKNKRYGGPSSGAPPPS [P289]"
category_label = "TRUE"

[[record]]
binder = "Hexanoyl-HSDAVFTDNYTRLL[Aib]QVAA[Aib]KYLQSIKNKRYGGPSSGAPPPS (ends and bridges not checked) [P317]"
category_label = "FALSE"

[[record]]
binder = "Hexanoyl-HSDAVFTDNYTRLQKQVAAK[Aib]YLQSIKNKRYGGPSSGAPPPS (ends and bridges not checked) [P251]"
category_label = "FALSE"

[[record]]
binder = "HSDAVFTDNYTXLRXQIAAXKYLQSIXNXGGPSSGAPPPS (N-terminal hexanoyl (C6); Orn at 12, 27, 29; Aib at 15, 20) [P365]"
category_label = "TRUE"

[[record]]
binder = "Hexanoyl-HSDAVFTDNYTRLRKQVAATKYLQSIKNKRYGGPSSGAPPPS [P152]"
category_label = "TRUE"

[[record]]
binder = "Hexanoyl-HSDAVFTDNYTRL[Aib]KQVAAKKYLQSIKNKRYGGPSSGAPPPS (ends and bridges not checked) [P167]"
category_label = "TRUE"

